- Test system: NCI-H23
- testSummary: NCI tumour cell line growth inhibition, 48 h
Activity calls are given as the source filed them. No stated cut-off is given here; in the data, active = GI50 up to about 1.1 µM and inactive = higher. Where a SMILES comes first, the peptide text is derived from it. [ ]: non-standard residue; d: D form. The star is where a group is joined. Chg = N[CH](C(=O)O)C1CCCCC1; Cbz = O=C(OCc1ccccc1)*; OBn = c1ccc(CO*)cc1
Use one of these outcomes when replying: Yes = active, No = inactive

molecule	discreteLabel
COC(=O)C(NC(=O)C(CC(=O)OCc1ccccc1)NC(=O)OCc1ccccc1)C1CCCCC1 (centres undefined) (Cbz-Asp(OBn)-[Chg]-OMe; configuration not given here)	No
C/C(=N\NC(=S)N1CCN(C2CCCCCC2)CC1)c1ccccn1	Yes
CC1SC2=NC3=C(c4ccccc4C3=O)C(c3ccc(F)cc3)N2C1=O (centres undefined)	No
c1ccc2c(C3CCN(CCN4CCOCC4)C3)c[nH]c2c1 (centres undefined)	No
O=C1/C(=C/c2ccco2)NC(=S)N1CN1CCCCC1	No

Q: Fill in: this test's call for `Cn1cc(S(=O)(=O)NC(=O)Nc2ccc(Cl)cc2)c2ccccc21` is ___
Ans: No

Q: Given COc1ccc2c(c1)CCCN1CCc3ccccc3C21 (centres undefined) , state the outcome it received in this test.
Ans: No

Q: Per the assay record, what outcome was assigned to `CC(C)(C)c1ccc(C(C)(C)C)c(N2C(=O)[C@@H]3[C@@H]4C=C[C@@H](C4)[C@]3(C)C2=O)c1` ?
Ans: No

Q: Per the records of this test, what outcome belongs to `Cc1cc(=O)n(-c2c(C)cccc2Cl)c(/C=C(\O)c2ccncc2)n1` ?
Ans: No

Hello, the source for this data is ChEMBL document CHEMBL1201862, in case you need it.
